target-system: T1, CCL1_HUMAN (human, UniProt P22362 24-96)
T1 chain: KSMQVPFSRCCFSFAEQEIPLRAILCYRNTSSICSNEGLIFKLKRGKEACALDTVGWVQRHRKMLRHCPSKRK
method-summary: BLI
Catalogue of log10 of Kd readings, one per entry.
measured-metric: log10 of Kd (log10 of the value in nM)

| binder | log10 of Kd |
| --- | --- |
| P974_AMBCA (other) ENTQQEEQDYDYGTDTCPFPVLANKTNKAKFVGCHQKCNGGDQKLTDGTACYVVERKVWDRMTPMLWYECPLGECKNGVCEDLRKKEDCRKGNGEEK | 1.85 |
| P1182_AMBMA (other) EPKDDNDYGGGCPFVVLGNGTHAKPAGCSHLCNGAPETLDNIECYNVTEEVAKRMTPGIPYACWLGWCNKGECKRGNRTEVCYRGSEEE | 1.87 |
| P985_AMBPA (other) DEESEELGASTDVDYEELDANCTCPAPALTSTRNNKHYPLGCIYNCSSYNCTIPDGTPCYVLTLGEVKEHLQIGSTVPNCTCGLCRNGTCVSNGTVEECFAVEEIEET | 0.92 |
| P1243_AMBAM (other) RNHTEDNSTEYYDYEEARCACPARHLNNTNGTVLKLLGCHYFCNGTLCTAPDGYPCYNLTAQQVRTLTTYPNTSCAVGVCMKGTCVKNGTMEQCFKTP | 1.33 |
| P546_AMBCA (other) ENTQQEEEDYDYGTDTCPFPVLANKTNKAKFVGCHQKCNGGDQKLTDGTACYVVERKVWDRMTPMLWYSCPLGECKNGVCEDLRKKEECRKGNGEEK | 2.20 |
| P467_RHIPU (other) AEKSLDSDSSGEDYELWTQGCPFLVAENRTGFGTTVSCQHNCNGAIEKVPEGEPCYTIGEDGLGRMKLNLPYNCSLGECSGGVCVPNGRSDVCFKRTWEENNKAMA | 1.73 |
